Test system: Calf thymus DNA
Assay: Displacement of ethidium from DNA of calf thymus at pH 7.4
Format: nucleic-acid assay
Settings: Bos taurus
readout: rf50

The cases that follow already have their rf50 on record.
Oc1ccc2[nH]c3ccc4cc[n+](CCN5CCC(C6CCN(CC[n+]7ccc8ccc9[nH]c%10ccc(O)cc%10c9c8c7)CC6)CC5)cc4c3c2c1.[Cl-].[Cl-]	1.2
COc1ccc2[nH]c3ccc4cc[n+](CCCCCCCCCC[n+]5ccc6ccc7[nH]c8ccc(OC)cc8c7c6c5)cc4c3c2c1.[Br-].[Br-]	3
COc1ccc2c(c1)c1c3c[n+](CCN4CCCCC4)ccc3ccc1n2C	20
COc1ccc2[nH]c3ccc4c[n+](CCN5CCC(C6CCN(CC[n+]7ccc8c(ccc9[nH]c%10ccc(OC)cc%10c98)c7)CC6)CC5)ccc4c3c2c1.[Cl-].[Cl-]	3.4
COc1ccc2[nH]c3ccc4cc[n+](CCN(C)CCCCCN(C)CC[n+]5ccc6ccc7[nH]c8ccc(OC)cc8c7c6c5)cc4c3c2c1	8.4
COc1ccc2[nH]c3ccc4cc[n+](CCN5CCC(C6CCN(CC[n+]7ccc8ccc9[nH]c%10ccc(OC)cc%10c9c8c7)CC6)CC5)cc4c3c2c1.[Cl-].[Cl-] [DITERCALINIUM CHLORIDE]	0.96
COc1ccc2[nH]c3ccc4cc[n+](CC(O)CN5CCC(C6CCN(CC(O)C[n+]7ccc8ccc9[nH]c%10ccc(OC)cc%10c9c8c7)CC6)CC5)cc4c3c2c1 (configuration not stated)	0.72
COc1ccc2c(c1)c1c3cc[n+](CCN4CCC(C5CCN(CC[n+]6ccc7c(ccc8c7c7cc(OC)ccc7n8C)c6)CC5)CC4)cc3ccc1n2C	1.2

(1) Oc1ccc2[nH]c3ccc4c[n+](CCN5CCC(C6CCN(CC[n+]7ccc8c(ccc9[nH]c%10ccc(O)cc%10c98)c7)CC6)CC5)ccc4c3c2c1
(2) COc1ccc2[nH]c3ccc4cc[n+](CCN5CCC(CCCC6CCN(CC[n+]7ccc8ccc9[nH]c%10ccc(OC)cc%10c9c8c7)CC6)CC5)cc4c3c2c1
(3) COc1ccc2c(c1)c1c3c[n+](CCN4CCC(C5CCN(CC[n+]6ccc7ccc8c(c7c6)c6cc(OC)ccc6n8C)CC5)CC4)ccc3ccc1n2C.[Cl-].[Cl-]
query: Sort (3 molecules) by rf50: min first. Give the order by naming the labels one after another as requested.
result: 3, 2, 1
(3: 0.72, 2: 2.24, 1: 13)
